Recorded values, source PubChem BioAssay.

Reported composite z-score is given for each of the following molecules.
test: small-molecule microarray binders of probe aNog, primary screen, biochemical, biotinylated probe, 635/667 nm fluorescence (AID 1115);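 note: probe is biotinylated aNog protein used at 0.15 µg/mL for 1 h at 4 C; z-score combines 667 nm fluorescence of each spot with its signal to noise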
assay.context: higher = more signal
Kindly provide the number alone.

Example entries and their recorded answers appear below.
>>> numeric_value("COC(=O)[C@]1(CO)N=C(c2ccc(OCCCO)cc2)O[C@@H]1c1ccccc1N=[N+]=[N-]")
-0.215
>>> numeric_value("CC(=O)OC[C@H]1O[C@H](CCON=C(C)CCC(=O)OC[C@H]2O[C@H](C#Cc3ccccc3)C=C[C@@H]2Oc2ccc(C)cc2)C=C[C@@H]1OC(C)=O")
-0.423
>>> numeric_value("CN1C(=O)C2C(C1=O)C1C=C(CCCO)C2C(c2ccc(CN3CCCC3)cc2)N1C (centres undefined)")
0.171

Kindly review the next molecule as well.
Quick check: composite z-score of CCN(CC)c1ccc(N2CC=CC34O[C@@H]5/C=C\CCC(C)OC(=O)C5[C@H]3C(=O)N(CCCO)[C@@H]4C2=O)cc1 (some centres undefined) ?
-0.216

---

System: glycogen synthase kinase-3 (GSK3A per assay name; protocol says GSK3B)
test: GSK3 binders on small-molecule microarrays, primary screen, biochemical, small-molecule microarray, 635 nm fluorescence, GSK3A (AID 1103); note: the record names both GSK3A and GSK3B
assay.context: small-molecule microarray binding, fluorescence 635 nm; higher = more signal
Reported composite z-score is given for each of the following compounds.

Example entries and their recorded answers appear below.
>>> result("COC(=O)c1c(CC[C@@H](CO)NC(=O)N[C@H](Cc2ccccc2)Cn2cc(-c3ccccc3N)nn2)oc(C(C)=O)c1C(=O)OC")
0.355
>>> result("COC(=O)[C@H](C)NC(=O)[C@@H](C)CO")
0.844
>>> result("CCOC(=O)C1=CCC(c2cc3ccccc3[nH]2)NC1 (stereo not drawn)")
0.233
>>> result("O=C(NN=C1C[C@@H](O)[C@@H](O)[C@@H]2[C@@H]3C(=O)N(c4cccc(Oc5ccccc5)c4)C(=O)[C@@H]3CC[C@H]12)OCc1ccccc1")
-0.281
>>> result("CO[C@@H]1COC(=O)CC=C[C@@H](C)[C@H](OC)COC(=O)[C@H](COCc2ccccc2)NC(=O)CC=C[C@H]1C")
-0.112

Quick check: composite z-score of CC1CC/C=C\[C@H]2OC34C=CCN(C(C)C)C(=O)[C@H]3N(CCCO)C(=O)[C@@H]4C2C(=O)O1 (stereo partly drawn) ?
-0.785

Quick check: composite z-score of COC(=O)[C@@H]1N=C(c2ccc(OCCCO)cc2)O[C@@H]1c1ccccc1N=[N+]=[N-] ?
0.981

Quick check: composite z-score of O=C1[C@H]2[C@H]3[C@H](O)[C@H](O)CC(=NO[C@@H]4O[C@H](CO)[C@@H](O)[C@H](O)[C@H]4O)[C@H]3CC[C@H]2C(=O)N1C1CCCCC1 ?
0.266

---

Reported z-score is given for each of the following compounds.
test: RPMI8226 myeloma cell viability, profiling panel, resazurin fluorescence, basal, 24 h, PK04 Diversity Set (AID 1180);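 note: RPMI8826 multiple myeloma cell line at 5000 cells per well; test concentration not given here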
assay.context: higher = more signal
Kindly provide the number alone.

>>> numeric_value("C[C@H]1Cc2c(-c3ccccc3)nc3c(c2CO1)CN(CCOc1ccccc1)CC3")
0.678
>>> numeric_value("CCCCC(=C=CC[C@H](O)c1ccccc1OCCO)C[C@H](O)COCc1ccccc1")
-0.276
>>> numeric_value("O=C1[C@H]2[C@H]3[C@H](O)[C@H](O)CC(=NO[C@@H]4O[C@H](CO)[C@@H](O)[C@H](O)[C@H]4O)[C@H]3CC[C@H]2C(=O)N1Cc1ccc2c(c1)OCO2")
0.367

Quick check: z-score of C=CC[C@@H]1C=C[C@H](ON=Cc2ccc(C(=O)N3[C@H](c4ccc(C)cc4)[C@@H](C)CC[C@H]3C(=O)OC)cc2)[C@@H](CO)O1 ?
0.0719

Quick check: z-score of CC(C)=NOCc1ccc(-c2cc(-c3ccccc3)no2)cc1 ?
-0.424

Quick check: z-score of O=C1[C@H]2[C@H]3[C@H](O)[C@H](O)CC(=NOC[C@@H](O)COCc4ccco4)[C@H]3CC[C@H]2C(=O)N1Cc1ccc2c(c1)OCO2 ?
0.263

Quick check: z-score of COCCOC(=O)N1C(=O)[C@@]2(c3ccccc31)[C@H](C(N)=O)[C@H]1C(=O)O[C@H](c3ccccc3)[C@H](c3ccccc3)N1[C@@H]2c1ccccc1OCCO ?
-4.25

Quick check: z-score of O=C1[C@H]2[C@H]3[C@H](O)[C@H](O)CC(=NOC[C@@H](O)COCc4ccco4)[C@H]3CC[C@H]2C(=O)N1C1CCCCC1 ?
-0.263

Quick check: z-score of COc1ccc(-c2ccc3c(n2)CCCN3CC(O)CN2CCCc3nc(C)c(C)cc32)cc1 (configuration not stated) ?
-0.836

---

test: RPMI8226 myeloma cell viability, profiling panel, resazurin fluorescence, basal, 24 h, PK04 Diversity Set (AID 1180);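 note: RPMI8826 multiple myeloma cell line at 5000 cells per well; test concentration not given here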
assay.context: higher = more signal
parameter.measured: z-score
Kindly provide the number alone.

Example entries and their recorded answers appear below.
>>> numeric_value("CC(C)[C@H](NC(=O)OC(C)(C)C)[C@@H](O)CC(=O)OC(C)(C)C")
0.496
>>> numeric_value("CS(=O)(=O)CCOC(=O)C1=CC(CCCO)=CC(c2cccs2)N(Cc2cccc(OC(F)(F)F)c2)C=C1C(=O)OCCS(C)(=O)=O (centres undefined)")
-0.96
>>> numeric_value("CC(CCN1CCCCc2nc(C)c(C)cc21)=NOC(C)CN1CCCCc2nc(C)c(C)cc21 (centres undefined)")
0.643

Kindly review the next compound as well.
Quick check: z-score of C=CCNC(=O)[C@H]1[C@@H]2C(=O)O[C@@H](c3ccccc3)[C@@H](c3ccccc3)N2[C@@H](c2ccc(O)cc2)[C@]12C(=O)N(C(=O)OCCOC)c1ccc(C#CC3=CCCCC3)cc12 ?
-0.205

---

test: HepG2 liver cancer cell viability effects, profiling panel, resazurin fluorescence, 24 h, PK04 Diversity Set (AID 1172); note: test concentration not given here
assay.context: higher = more signal
Reported z-score is given for each of the following compounds.
Kindly provide the number alone.

Quick check: z-score of CC(C)C[C@@H]1NC(=O)[C@H]2C[C@@H](C(=O)NCCCCCCN(C)C)[C@@H](c3cccc(OCCO)c3)N2C1=O ?
-0.233

---

System: Human papillomavirus type 1a protein E7 (residues 44-93)
test: HPV1a E7 fragment binders on microarrays, primary screen, biochemical, small-molecule microarray, residues 44-93, 635 nm fluorescence (AID 1108);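 note: E7 fragment applied at 1 µg/mL in TBST for 1 h at 4 C; score combines spot fluorescence with its signal to noise ratio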
assay.context: small-molecule microarray binding, fluorescence 635 nm; higher = more signal
Mark T for reported composite z-score of 0.09 or greater; mark F for anything smaller.

>>> class_assignment("CCOC(=O)C1=CCC(c2cc3ccccc3[nH]2)NC1 (stereo not given)")
"F"
>>> class_assignment("CO[C@@H]1COC(=O)CC=C[C@@H](C)[C@@H]2C=C[C@@H](O)[C@@H](COC(=O)CC=C[C@H]1C)O2")
"F"
>>> class_assignment("Cc1cc2c(nc1C)CCCN2CC(C)ON=C1[C@H]2CCn3c(=O)n(-c4ccccc4)c(=O)n3[C@H]2[C@H](O)[C@@H]2O[C@H]12 (stereo not given in full)")
"T"

Confirm if composite z-score reported for the compound COCCOC(=O)N1C(=O)[C@@]2(c3cc(C#CC4(O)CCCCCC4)ccc31)[C@H](C(=O)N1CCN(c3ncccn3)CC1)[C@H]1C(=O)O[C@H](c3ccccc3)[C@H](c3ccccc3)N1[C@@H]2c1ccc(OCCO)cc1 is 0.09 or above.
T

---

test: small-molecule microarray binders of probe aXIP, primary screen, biochemical, NeuroSMM set, 635/667 nm fluorescence (AID 1119);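 note: probe is the protein aXip251-270 applied at 1 µg/mL to compound-printed slides; binding of probe to printed compounds measured as 667 nm fluorescence plus signal to noise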
assay.context: higher = more signal, called active from +8 up or from −8 down
Mark 1.0 for reported composite Z-score of -0.3 or greater; mark 0.0 for anything smaller.

Known results for molecules:
>>> class_assignment("O=C1[C@H]2[C@H]3[C@H](O)[C@H](O)CC(=NO[C@@H]4O[C@H](CO)[C@@H](O)[C@H](O)[C@H]4O)[C@@H]3CC[C@H]2C(=O)N1c1ccc(F)cc1F")
0.0
>>> class_assignment("COCCOC(=O)N1C(=O)[C@@]2(c3ccccc31)[C@H](C(N)=O)[C@H]1C(=O)O[C@H](c3ccccc3)[C@H](c3ccccc3)N1[C@@H]2c1ccccc1OCCO")
1.0
>>> class_assignment("O=C1[C@H]2[C@H]3[C@H](O)[C@H](O)CC(=NOC[C@@H](O)COCc4ccco4)[C@H]3CC[C@H]2C(=O)N1C1CCCCC1")
0.0

Confirm if composite Z-score reported for the molecule C#C[C@@H]1Oc2ccccc2S(=O)(=O)N2CCC[C@H]12 is -0.3 or above.
1.0

Confirm if composite Z-score reported for the molecule Cc1ccc(F)cc1S(=O)(=O)N[C@@H]1CCN(Cc2ccc(CC(C)C)cc2)C1 is -0.3 or above.
0.0

Confirm if composite Z-score reported for the molecule CC(C)(C)N1C(=O)[C@H]2[C@H]3[C@H](O)[C@H](O)CC(=NOCc4ccccc4)[C@@H]3CC[C@H]2C1=O is -0.3 or above.
1.0

Confirm if composite Z-score reported for the molecule CCCCCN1CC=CC23O[C@@H]4C=CCOC(=O)[C@@H]4[C@H]2C(=O)N(C(CO)C(C)C)[C@@H]3C1=O (some centres not stated) is -0.3 or above.
1.0
